system-name: T1, human aryl hydrocarbon receptor-interacting protein-like 1 (hAIPL1), full length, His6-tagged (human, UniProt Q9NZN9 1-384)
T1 sequence (looked up): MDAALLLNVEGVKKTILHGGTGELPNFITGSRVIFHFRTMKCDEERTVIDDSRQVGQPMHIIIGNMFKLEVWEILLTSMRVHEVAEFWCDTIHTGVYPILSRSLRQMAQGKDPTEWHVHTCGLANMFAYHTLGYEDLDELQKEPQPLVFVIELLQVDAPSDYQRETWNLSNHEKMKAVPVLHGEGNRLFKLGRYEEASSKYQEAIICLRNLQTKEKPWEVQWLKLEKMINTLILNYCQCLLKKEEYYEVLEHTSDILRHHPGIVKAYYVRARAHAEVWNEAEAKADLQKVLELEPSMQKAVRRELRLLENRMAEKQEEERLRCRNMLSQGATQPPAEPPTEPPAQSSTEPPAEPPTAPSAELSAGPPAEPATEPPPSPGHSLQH
method-summary: other fluorescence titration

binder | Kd
PDE6 γ-subunit with a single Cys at position 68, labeled with 3-(bromo acetyl)-7-diethyl aminocoumarine (natural protein, UniProt P04972 1-87, looked up, 3-(bromo acetyl)-7-diethyl aminocoumarine (BC) on Cys68) MNLEPPKAEIRSATRVMGGPVTPRKGPPKFKQRQTRQFKSKPPKKGVQGFGDDIPGMEGLGTDITVICPWEAFNHLELHELAQYGII | 2500 nM
